Data provenance: ChEMBL document CHEMBL1122959

- tested.system: UniProtKB P51639
- Sequence (whole entry): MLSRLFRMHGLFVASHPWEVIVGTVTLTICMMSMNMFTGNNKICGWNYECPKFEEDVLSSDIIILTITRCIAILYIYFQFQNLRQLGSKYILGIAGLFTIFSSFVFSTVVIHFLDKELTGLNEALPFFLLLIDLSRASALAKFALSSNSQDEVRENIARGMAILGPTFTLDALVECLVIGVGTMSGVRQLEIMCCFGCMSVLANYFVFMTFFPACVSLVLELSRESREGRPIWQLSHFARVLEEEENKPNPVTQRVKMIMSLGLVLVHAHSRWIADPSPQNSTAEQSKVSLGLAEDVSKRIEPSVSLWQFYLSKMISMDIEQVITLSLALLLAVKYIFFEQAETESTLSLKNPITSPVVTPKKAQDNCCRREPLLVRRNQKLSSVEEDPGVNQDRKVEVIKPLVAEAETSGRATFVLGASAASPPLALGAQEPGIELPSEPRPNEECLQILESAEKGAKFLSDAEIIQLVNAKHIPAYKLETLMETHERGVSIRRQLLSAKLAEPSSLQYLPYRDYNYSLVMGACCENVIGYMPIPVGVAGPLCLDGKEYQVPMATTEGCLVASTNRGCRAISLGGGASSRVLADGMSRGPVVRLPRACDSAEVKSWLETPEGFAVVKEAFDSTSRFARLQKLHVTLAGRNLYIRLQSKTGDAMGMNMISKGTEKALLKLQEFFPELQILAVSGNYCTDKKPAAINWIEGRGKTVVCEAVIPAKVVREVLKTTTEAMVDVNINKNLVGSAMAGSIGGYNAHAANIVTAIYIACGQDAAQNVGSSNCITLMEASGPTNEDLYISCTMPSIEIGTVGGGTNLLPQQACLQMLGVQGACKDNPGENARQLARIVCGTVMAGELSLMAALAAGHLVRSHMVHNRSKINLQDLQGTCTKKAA
- assay.comment: Inhibitory activity against partially purified rat liver HMG CoA reductase at 2 ug/ml concentration
observation.type: inhibition

compound="O=C1C[C@H](O)CC(CCCc2cccc3ccccc23)O1 (some centres undefined)" result=11%
compound=CO[C@H]1C[C@H](O)C[C@@H](/C=C/c2ccc(Cl)cc2Cl)O1 result=0%
compound="CC1=CC(=O)OC(/C=C/c2ccc(Cl)cc2Cl)C1 (centres undefined)" result=0%
compound=NC(=O)C[C@H](O)C[C@H](O)/C=C/c1ccc(Cl)cc1Cl result=0%

---

- tested.system: 3-hydroxy-3-methylglutaryl-coenzyme A reductase (Rattus norvegicus) (UniProt P51639)
- assay.comment: Inhibitory activity against partially purified rat liver HMG CoA reductase at 2 ug/ml concentration
observation.type: inhibition

compound=O=C1C[C@H](O)C[C@@H](COc2ccc(Cl)cc2Cl)O1 tested_system="3-hydroxy-3-methylglutaryl-coenzyme A reductase (Rattus norvegicus) (UniProt P51639)" result=24%
compound="O=C1C[C@@H](O)C[C@@H](/C=C/c2ccc(Cl)cc2Cl)O1 (racemic)" tested_system="3-hydroxy-3-methylglutaryl-coenzyme A reductase (Rattus norvegicus) (UniProt P51639)" result=4%
compound="O=C1C=C(O)OC(/C=C/c2ccc(Cl)cc2Cl)C1 (stereo unspecified)" tested_system="3-hydroxy-3-methylglutaryl-coenzyme A reductase (Rattus norvegicus) (UniProt P51639)" result=0%
compound=C[C@@]1(O)CC(=O)O[C@H](/C=C/c2ccc(Cl)cc2Cl)C1 tested_system="3-hydroxy-3-methylglutaryl-coenzyme A reductase (Rattus norvegicus) (UniProt P51639)" result=3%
compound=C[C@]1(O)CC(=O)O[C@H](/C=C/c2ccc(Cl)cc2Cl)C1 tested_system="3-hydroxy-3-methylglutaryl-coenzyme A reductase (Rattus norvegicus) (UniProt P51639)" result=21%
compound=C[C@]1(O)CC(=O)O[C@H](CCc2ccc(Cl)cc2Cl)C1 tested_system="3-hydroxy-3-methylglutaryl-coenzyme A reductase (Rattus norvegicus) (UniProt P51639)" result=26%

---

- tested.system: 3-hydroxy-3-methylglutaryl-coenzyme A reductase (Rattus norvegicus) (UniProt P51639)
- assay.comment: Inhibitory activity against partially purified rat liver HMG CoA reductase at 8 ug/ml concentration
Parameter inhibition: see the listing below.
observation.type: inhibition (%)

molecule="O=C1C[C@H](O)C[C@@H](/C=C/c2ccc(Cl)cc2Cl)O1 (stereo in doubt; 6a(-))" observation_type=inhibition unit_tag=% quantitative_result=0
molecule=CO[C@@H]1C[C@H](O)C[C@@H](/C=C/c2ccc(Cl)cc2Cl)O1 observation_type=inhibition unit_tag=% quantitative_result=6
molecule=C[C@]1(O)CC(=O)O[C@H](CCc2ccc(Cl)cc2Cl)C1 observation_type=inhibition unit_tag=% quantitative_result=63
molecule=NC(=O)C[C@H](O)C[C@H](O)/C=C/c1ccc(Cl)cc1Cl observation_type=inhibition unit_tag=% quantitative_result=0

---

Parameter inhibition: see the listing below.
- tested.system: 3-hydroxy-3-methylglutaryl-coenzyme A reductase (Rattus norvegicus) (UniProt P51639)
- Sequence (whole entry): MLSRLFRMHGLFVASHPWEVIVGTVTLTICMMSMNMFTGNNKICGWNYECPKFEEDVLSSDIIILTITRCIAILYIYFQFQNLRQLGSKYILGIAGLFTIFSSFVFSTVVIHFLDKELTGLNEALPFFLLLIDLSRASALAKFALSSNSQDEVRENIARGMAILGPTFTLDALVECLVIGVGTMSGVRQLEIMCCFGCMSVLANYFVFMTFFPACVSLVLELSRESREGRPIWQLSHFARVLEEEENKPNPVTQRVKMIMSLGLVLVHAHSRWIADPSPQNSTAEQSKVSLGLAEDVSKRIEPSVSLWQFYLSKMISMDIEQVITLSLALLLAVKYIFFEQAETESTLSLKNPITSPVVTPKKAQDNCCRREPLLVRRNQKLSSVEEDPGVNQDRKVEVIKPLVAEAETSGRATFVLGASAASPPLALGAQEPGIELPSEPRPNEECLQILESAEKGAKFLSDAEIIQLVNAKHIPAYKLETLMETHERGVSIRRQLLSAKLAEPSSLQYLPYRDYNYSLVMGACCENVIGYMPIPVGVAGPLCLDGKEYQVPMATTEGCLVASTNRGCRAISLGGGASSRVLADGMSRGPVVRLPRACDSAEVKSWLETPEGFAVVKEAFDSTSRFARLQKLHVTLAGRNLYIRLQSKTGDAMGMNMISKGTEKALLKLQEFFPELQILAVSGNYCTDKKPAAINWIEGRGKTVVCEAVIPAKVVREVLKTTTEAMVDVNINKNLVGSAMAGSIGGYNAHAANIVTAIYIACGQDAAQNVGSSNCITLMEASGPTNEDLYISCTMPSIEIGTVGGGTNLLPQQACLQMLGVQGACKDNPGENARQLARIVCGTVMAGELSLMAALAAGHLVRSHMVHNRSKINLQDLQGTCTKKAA
- assay.comment: Inhibitory activity against partially purified rat liver HMG CoA reductase at 2 ug/ml concentration
observation.type: inhibition (%)

compound="O=C1C[C@H](O)C[C@@H](/C=C/c2ccc(Cl)cc2Cl)O1 (stereo in doubt; 6a(+))" quantitative_result=45
compound="O=C1C[C@H](O)C[C@@H](/C=C/c2ccc(Cl)cc2Cl)O1 (stereo in doubt; 6a(-))" quantitative_result=0
compound="COC(/C=C/c1ccc(Cl)cc1Cl)CC(O)CC(=O)O (stereo not given)" quantitative_result=0
compound=O=C1C[C@H](O)C[C@@H](CCc2ccc(Cl)cc2Cl)O1 quantitative_result=38
compound=CO[C@@H]1C[C@H](O)C[C@@H](/C=C/c2ccc(Cl)cc2Cl)O1 quantitative_result=0

---

- tested.system: 3-hydroxy-3-methylglutaryl-coenzyme A reductase (Rattus norvegicus)
- Sequence (whole entry): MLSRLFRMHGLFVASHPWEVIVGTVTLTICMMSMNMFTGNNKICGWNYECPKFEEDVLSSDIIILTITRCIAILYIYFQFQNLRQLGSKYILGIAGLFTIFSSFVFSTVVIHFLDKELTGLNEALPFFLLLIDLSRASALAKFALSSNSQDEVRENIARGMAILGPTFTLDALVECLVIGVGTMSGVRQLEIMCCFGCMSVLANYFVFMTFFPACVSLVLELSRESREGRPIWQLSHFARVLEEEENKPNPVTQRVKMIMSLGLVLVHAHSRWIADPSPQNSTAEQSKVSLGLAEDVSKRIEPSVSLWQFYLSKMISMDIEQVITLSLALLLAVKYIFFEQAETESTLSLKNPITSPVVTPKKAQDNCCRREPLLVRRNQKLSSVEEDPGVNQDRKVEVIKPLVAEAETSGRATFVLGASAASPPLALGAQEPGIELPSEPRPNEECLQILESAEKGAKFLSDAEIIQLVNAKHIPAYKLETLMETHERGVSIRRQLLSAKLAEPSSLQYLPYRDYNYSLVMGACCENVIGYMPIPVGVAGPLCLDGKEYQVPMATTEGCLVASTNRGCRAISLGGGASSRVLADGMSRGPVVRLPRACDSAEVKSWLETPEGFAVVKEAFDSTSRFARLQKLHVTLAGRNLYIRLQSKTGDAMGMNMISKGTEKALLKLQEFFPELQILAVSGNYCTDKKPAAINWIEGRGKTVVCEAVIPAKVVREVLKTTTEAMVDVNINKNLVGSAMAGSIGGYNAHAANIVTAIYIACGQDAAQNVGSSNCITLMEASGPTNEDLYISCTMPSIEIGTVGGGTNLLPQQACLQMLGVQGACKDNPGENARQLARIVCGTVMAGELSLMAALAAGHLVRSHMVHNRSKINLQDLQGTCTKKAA
- assay.comment: Inhibitory activity against partially purified rat liver HMG CoA reductase at 4 ug/ml concentration
observation.type: inhibition (%)

molecule=CO[C@H]1C[C@H](O)C[C@@H](/C=C/c2ccc(Cl)cc2Cl)O1 observation_type=inhibition quantitative_result=2
molecule=C[C@@]1(O)CC(=O)O[C@H](/C=C/c2ccc(Cl)cc2Cl)C1 observation_type=inhibition quantitative_result=7
molecule=C[C@]1(O)CC(=O)O[C@H](/C=C/c2ccc(Cl)cc2Cl)C1 observation_type=inhibition quantitative_result=36
molecule=C[C@]1(O)CC(=O)O[C@H](CCc2ccc(Cl)cc2Cl)C1 observation_type=inhibition quantitative_result=37
molecule="O=C1C[C@H](O)C[C@@H](/C=C/c2ccc(Cl)cc2Cl)O1 (stereo in doubt; 6a(-))" observation_type=inhibition quantitative_result=0
molecule=O=C1C[C@H](O)C[C@@H](COc2ccc(Cl)cc2Cl)O1 observation_type=inhibition quantitative_result=18
molecule="CC1=CC(=O)OC(/C=C/c2ccc(Cl)cc2Cl)C1 (stereo not drawn)" observation_type=inhibition quantitative_result=3
molecule=CO[C@@H]1C[C@H](O)C[C@@H](/C=C/c2ccc(Cl)cc2Cl)O1 observation_type=inhibition quantitative_result=0
